measurement-description: Apparent volume of distribution during terminal phase in plasma of human HCT116 cells xenografted BALB/c mouse at 80 mg/kg, po administered as single dose by LC-MS/MS analysis
Format: ADME, organism-based
study-conditions: read-out: Vz/F
assay-readout: Vd/F (L/kg)
Answers are plain numbers, in L/kg.

So, Cc1cc(C)c(S(=O)(=O)N(CC(=O)O)c2ccc(Nc3ccnc(N4CCNCC4)n3)cc2)c(C)c1 ? Its Vd/F was 0.392

###

system: Heat shock protein HSP 90-beta/Hsp90 co-chaperone Cdc37 (Homo sapiens) (UniProt P08238+Q16543)
measurement-description: Inhibition of His-tagged HSP90/GST-tagged Cdc37 (unknown origin) protein-protein interaction at 100 uM measured after 1 hr by HTRF assay relative to control
Assay type: protein-complex assay
assay-readout: inhibition

>>> print(df.to_string())
                                smiles_data  readout_value
0  Cc1cc(C)c(S(=O)(=O)N(CC(=O)O)c2ccc(Nc3ccnc(N4CCCCCC4)n3)cc2)c(C)c1          < 50%
1  COC(=O)CN(c1ccc(Nc2ccnc(N3CCCCCC3)n2)cc1)S(=O)(=O)c1c(C)cc(C)cc1C          < 50%

Look at each compound and report its inhibition.
1. O=S(=O)(Nc1ccc(Nc2ccnc(N3CCCC3)n2)cc1)c1ccc(C(F)(F)F)cc1
2. CCC(CC)Nc1nccc(Nc2ccc(N(CC(=O)O)S(=O)(=O)c3c(C)cc(C)cc3C)cc2)n1
3. CC(C)(C)c1ccc(S(=O)(=O)Nc2ccc(Nc3ccnc(N4CCCC4)n3)cc2)cc1
4. CCNc1nccc(Nc2ccc(N(CC(=O)OC)S(=O)(=O)c3c(C)cc(C)cc3C)cc2)n1
5. Cc1cc(C)c(S(=O)(=O)N(Cc2ccc(C(C)C)cc2)c2ccc(Nc3ccnc(N4CCCC4)n3)cc2)c(C)c1

Solution:
["< 20%", "< 50%", "< 20%", "< 50%", "< 50%"]

All values here come from ChEMBL document CHEMBL4376883.
